Values were extracted from ChEMBL document CHEMBL1201862.

# Tested on: K562
# Method summary: NCI tumour cell line growth inhibition, 48 h
The source made the active and inactive calls. Cut-off read from the data, not from the text of the source: active = GI50 up to about 1.1 µM and inactive = higher.
Parameter: GI50

Recorded results for 4 molecules are shown here.
                                   molecule            measured
0  CC(C)CNC(=O)c1c(NC(=O)c2ccccc2)sc2[nH]c(=O)n(-c3ccccc3)c(=O)c12    31 µM (inactive)
1  COC1=C(OC)C(=O)C(Cc2c(C)nc3sccn23)=C(C)C1=O  18.7 µM (inactive)
2  C=CC(C)(C)[C@@]12CC3C(=O)N[C@@H](Cc4ccccc4)C(=O)N3[C@@H]1N(C(C)=O)c1ccccc12 (stereo not given in full)  49.3 µM (inactive)
3  CC(C)(C)OC(=O)N1[C@@H]2Cc3ccc(N)cc3[C@@]1(C)c1ccccc12  24.8 µM (inactive)

Inquiry: Which GI50 value is on record for OC(CC(c1ccccc1)c1ccc(Cl)cc1)c1ccc(Cl)cc1 (stereo not given) ?
Reply text: 32.4 µM (inactive)

---

# Tested on: HCT-116
# Method summary: NCI tumour cell line growth inhibition, 48 h
Active and inactive are the calls of the source. Rule as the data show it: active = GI50 up to about 1.1 µM and inactive = higher.
Respond using exactly one of the listed classes: Yes for active, No for inactive

Record excerpt, results attached:
In [3]: df
Out[3]:
                                   compound  cat
0     CO/C(=N\N=C\c1ccc(Cl)c(Cl)c1)c1ccncc1   No
1  COc1cc2c(c(OC(C)=O)c1OC(C)=O)-c1ccc(SC)c(=O)cc1C(NC(C)=O)CC2 (centres undefined)   No
2  CCCS(=O)(=O)Nc1ccc(Nc2c3ccccc3nc3ccccc23)c(OC)c1  Yes
3  c1cncc(C2(c3cc4ccccc4[nH]3)COCO2)c1 (centres undefined)   No

Inquiry: Dear all, I need the recorded test outcome for COc1cc(OC)cc(OCc2ccc3nc(-c4ccccc4)c(Cl)nc3c2)c1 , thank you.
Reply text: No

Inquiry: # fetch the recorded call for Cc1cc(S(=O)(=O)O)c(NC(=O)C(=O)C2C=CCS2(=O)=O)cc1Cl (centres undefined) here
Reply text: No

Inquiry: # outcome recorded in this test, key = CC(=O)OCC1OC(n2c(N)c(C#N)c(-c3ccccc3)c(C#N)c2=S)C(OC(C)=O)C(OC(C)=O)C1OC(C)=O (centres undefined)
Reply text: No

Inquiry: What outcome does the record of this test show for COc1ccc(N[S+]([O-])c2ccc(Cl)cc2)cc1 (centres undefined) ?
Reply text: No

---

# Test system: HCC 2998
# Method summary: NCI tumour cell line growth inhibition, 48 h
Active and inactive are the calls of the source. No stated cut-off is given here; in the data, active = GI50 up to about 1.1 µM and inactive = higher.
Each record here notes measured GI50.

Worked examples follow.
Compound	Measured
O=c1[nH]c(=O)n(C2OC(COP(=O)(O)OP(=O)(O)OC3OC(CO)C(O)C(O)C3O)C(O)C2O)cc1F (stereo not given)	0.116 µM (active)
CSc1nc2c(nc(N)n2C2OC(CO)C(O)C(O)C2O)c(=O)[nH]1 (stereo not given)	> 100 µM (inactive)
CC(=O)n1[nH]c(=O)n(-c2ccccc2)c1=O	> 100 µM (inactive)
CC(=O)c1cccc(NC(=O)C(=O)C(C(=O)NN)c2ccccc2)c1 (stereo not given)	51.6 µM (inactive)
CCc1ccc(Cc2ccc(CC)c(NC(=O)C(=O)C3NC(=S)NC3=O)c2CC)c(CC)c1NC(=O)C(=O)C1NC(=S)NC1=O (stereo not given)	> 100 µM (inactive)
O=C(CCCc1cccc2[nH]c3c(c12)CN(Cc1ccccc1)CC3)c1ccc(F)cc1	11.9 µM (inactive)

Inquiry: Consider the compound shown here: ClC(Cl)=C1C(=C(Cl)Cl)C(Cl)(Cl)C1(Cl)Cl What is its recorded GI50?
Reply text: 4.78 µM (inactive)

Inquiry: Reported GI50, compound Cc1ccccc1C(C#N)C(=O)C(=O)Nc1nc([N+](=O)[O-])cs1 (stereo not given) : ____
Reply text: > 100 µM (inactive)

Inquiry: Form field: reported GI50 of Cc1csc(NNC(=O)Nc2ccccc2)n1
Reply text: > 100 µM (inactive)

Inquiry: Tell me the measured GI50 of CCOC(=O)C(C(C)=O)C1CC=CC1 (stereo not given) , please.
Reply text: > 100 µM (inactive)
